Attribution: patent US12144869B2

EXPERIMENT: Differential scanning fluorimetry (protein thermal shift; TM1/TM2)
Type: physicochemical
MEASUREMENT SETUP: Table 11; melting temperature of the Fab domain
Listed here are molecules together with their documented TM2 (° C.).
State just the number; it will be interpreted in °C.

Below, each entry is followed by its recorded TM2 (° C.) result.
INSERT INTO results (molecule, endpoint_name, result_units, recorded_value) VALUES
  ('SRP2196-B03 (antibody, V domains shown) VH: EVQLVESGGGLAQPGGSLRLSCAASGFNITGYYIHWVRQAPGKGLEWVGYISPNSGATHYADSVKGRFTISADTSKNTAYLQMNSLRAEDTAVYYCARDSRRYVRPFDYWGQGTLVTVSS VL: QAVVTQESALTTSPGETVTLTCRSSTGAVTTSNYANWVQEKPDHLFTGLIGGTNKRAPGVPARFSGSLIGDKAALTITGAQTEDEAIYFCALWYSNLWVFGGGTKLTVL', 'TM2 (° C.)', '°C', 71),
  ('SRP2196-A11 (antibody, V domains shown) VH: EVQLVESGGGLVQPGGSLRLSCAASGFNITGYYIHWVRQAPGKGLEWVGQISPNSGTTYDADSVKGRFTISADTSKNTAYLQMNSLRAEDTAVYYCARDSRRYVRGWDYWGQGTLVTVSS VL: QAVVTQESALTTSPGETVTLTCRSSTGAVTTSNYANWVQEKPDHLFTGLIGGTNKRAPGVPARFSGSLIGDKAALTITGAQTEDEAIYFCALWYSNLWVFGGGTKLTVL', 'TM2 (° C.)', '°C', 73);

Note: attention shifts to another entry.
What measured TM2 (° C.) goes with SRP2196-C04 (antibody, V domains shown) VH: EVQLVESGGGLVQPGGSLRLSCAASGFNITGYYIHWVRQAPGKGLEWVGFIAPLSGSTHNADSVKGRFTISADTSKNTAYLQMNSLRAEDTAVYYCARESRRYVNPWDYWGQGTLVTVSS VL: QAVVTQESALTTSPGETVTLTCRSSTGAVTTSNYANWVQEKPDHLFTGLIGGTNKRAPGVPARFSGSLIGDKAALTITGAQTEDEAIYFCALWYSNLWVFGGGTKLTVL ?
70
